- protocol_summary: physchem
- conditions_used: water
measured_parameter: solubility

QUERY: Requested field: solubility. Item: CO[C@@H](C(=O)N[C@H]1CC[C@@H](OC(=O)CCc2ccccc2)CNC1=O)[C@H](O)[C@@H](O)[C@H](O)/C=C/C(C)(C)C
RESULT: 800 µg/mL

---

- Tested on: MDA-MB-435 breast carcinoma
- protocol_summary: Anchorage Dependent Growth Monolayer Assay (ADGMA), MTS readout
- Assay type: cell-based
- conditions_used: Homo sapiens, MDA-MB-435, 72 h, average ± S.D., 3-day exposure, A490
measured_parameter: IC50 (nM)
Give a bare numeral; the unit nM is implied.

QUERY: What value of IC50 has been recorded for this entry: CO[C@@H](C(=O)N[C@H]1CC[C@@H](OC(=O)C2CCCCC2)CNC1=O)[C@H](O)[C@@H](O)[C@H](O)/C=C/C(C)(C)C
RESULT: 68

QUERY: Then what about the compound CO[C@@H](C(=O)N[C@H]1CC[C@@H](OC(=O)C2CCCC2)CNC1=O)[C@H](O)[C@@H](O)[C@H](O)/C=C/C(C)(C)C ?
RESULT: 115

QUERY: // repeat for COc1cccc2c1C(=O)c1c(O)c3c(c(O)c1C2=O)C[C@@](O)(C(=O)CO)C[C@@H]3O[C@H]1C[C@H](N)[C@H](O)[C@H](C)O1 [doxorubicin, reference compound] and report
RESULT: 137

QUERY: Thanks! And CO[C@@H](C(=O)N[C@H]1CC[C@@H](OC(=O)CC2CCCCC2)CNC1=O)[C@H](O)[C@@H](O)[C@H](O)/C=C/C(C)(C)C ?
RESULT: 65

These entries and their values trace back to patent EP1131297B1.
